B1: TPR t1 (parent)
chain: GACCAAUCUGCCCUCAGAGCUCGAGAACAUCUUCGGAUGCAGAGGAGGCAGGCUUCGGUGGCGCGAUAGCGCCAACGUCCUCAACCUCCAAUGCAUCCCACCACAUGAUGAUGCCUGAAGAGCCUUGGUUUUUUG

variants of: B1; assay: polymerase ribozyme fitness, log enrichment relative to wild type (log ratio); higher = more active; in vitro selection for triplet polymerase activity
Rule: polymerase ribozyme fitness (log ratio) under -4 gives not met, otherwise met.

GACCAAUCUGCCCUCAGAGCUCGAGAACAUCUUCGGAUGCAGAGGAGGUAGGCUUCGGUGGCGCGAUAGCCCCAACGUCCUCAACCUCCAAUGCAUCCCACCACAUGAUGAUGCCUUAAAAGCAUUGGUUUUUUG [C49U G71C G117U G120A C124A] :: met
GACCAAUCUGCCCUCAGAGCUCGAGAACAUCUUCGGACGCAGAGGUGGCAGGCUUCGGUGGCGCGAUAGCGCCAACGUCCUCAACCUCCAAUGCAUCCCCCCACAUGAUGAUGCCUGAAGAGCCUUGGUUUUUUG [U38C A46U A100C] :: not met
GACCAGUCUGCCCUCAGAGCUCGAGAACAUCUUCGGAUGCAGAGGAGGCAGGCUUCGGUGGCGCGAUAGCGCCAACGUUCUCAACCUGCAAUGCAUCCCACCAUAUGAUGAUGCCUGAAGAGCCUUGGUUUUUUG [A6G C79U C88G C104U] :: met
GACCAAUCUGCCCUCAGAGCUCGAGCACGUCUUCGGAUGCAGAGGAGGCAGGCUUCGGUGGCGCGAUAGCGCCAACGUCCUCAACCUCCAAUGCAUCCCACCACAUGAUGAGGCCUGAAGAGCCUUGGUUUUUUG [A26C A29G U112G] :: not met
GACCAAUCUGCCCUCAGAGCUCGAGAACAUCUUCGGAUGCAGAGGAGGCAGGCUUCGGUGGCGCGAUAGCGCCAACGUCCUCAACCUCCAAUGCAUCCCACCGCAUGAUGAUGCCUGAAGAGCCUUGGUAUUUUG [A103G U130A] :: not met
GACUAAUCAGCCCUCAGAGCUCGAGAACAUCUUCGGAUGCAGAGGAGGCAGGCUUCGGUGGCGCGAUAGCGCCAACGUCCUAAACCUCCAAUGCAUCCCACCACAUGAUGAUGCCUGAAGAGCCUUGGUUUUUUG [C4U U9A C82A] :: met
GACCAAUCUGUCCUCAGAGCUCGAGAACAUCUUCGGAUGCAGACGAGGCAGGCUUCGGUGGCGCGAUAGCGCCAACGUCCUCAACCUCCAAUGCAUCCCACCAUAUGAUGAUGCCCGAAGAGCCUUGGUUUUUUG [C11U G44C C104U U116C] :: met
GACCAAUCUGCCCUCAGAGCUCGAGAACAUCUACGGAUGCAGAGAAGGCAGGCUUCGGUGGCCCGAUAGCGCCAACGUCCUCAACCUCCAAUGCAUCCCACCACAUGAUGAUGCCUGAAGAGCCUUGGUUUUUUG [U33A G45A G63C] :: not met
GACCAAUCUCCCCUCAGAGCUCGAGAACAUCUUCGGAUGCAGAGGAGGCAGGCUUCGGUGGCGCGAUAGCACCAACGUCCCCAACCUCCAAUGCAUCCCUCCACAUGAUGAUGCCUGAAGAGCCUUGGUUUUUUG [G10C G71A U81C A100U] :: met
GACCACUCUGCCCUCAGAGCUCGGGGACAUCUUCGGAUGCAGAGGAGGCAGGCUUCGGUGGCGCGAUAGCGCCAACGUCCUCAACCGCCAAUGCAUCCCACCACAUGAUGACGCCUGAAGGGCCUUGGUUUUUUG [A6C A24G A26G U87G U112C A121G] :: met

Values compiled from the RNAGym collection of RNA variant scans (doi:10.1073/pnas.2313332121).
